# Assay: Population pharmacokinetic analysis
# Type: in vivo, human
# Run Parameters: human, plasma, oral, Derived elimination t½, base model
Endpoint: half-life

Compound: C[C@@H]1CCN(C(=O)CC#N)C[C@@H]1N(C)c1ncnc2[nH]ccc12 [tofacitinib]
Endpoint: half-life
Value Reported: ~3.05 h

---

# Assay: Population pharmacokinetic analysis
# Type: in vivo, human
# Run Parameters: human, plasma, oral

Structure: C[C@@H]1CCN(C(=O)CC#N)C[C@@H]1N(C)c1ncnc2[nH]ccc12
Vd/F / L: 116
